Collected Ki values appear next to each entry.
molecular target: MsCI4 (Magnetospirillum gryphiswaldense, UniProt A4TVL0, W36F/W59F); experiment: biochemical; assay type: binding
Sequence (A4TVL0 entry or part of it W36F/W59F): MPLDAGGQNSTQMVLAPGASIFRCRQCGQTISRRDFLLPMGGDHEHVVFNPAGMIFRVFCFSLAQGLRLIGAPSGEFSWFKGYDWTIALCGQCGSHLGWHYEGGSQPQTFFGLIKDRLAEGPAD
Report the value in µM with no unit label.

Here's what some known entries look like.
COMPOUND | READOUT | UNIT TAG | ENDPOINT VALUE
O=C1CCCCN1 [δ-Valerolactam, Piperidin-2-one] | Ki | µM | 146
Cc1cn([C@H]2C[C@H](O)[C@@H](CO)O2)c(=O)[nH]c1=O [Thymidine] | Ki | µM | 204
CCC1(c2ccc(N)cc2)CCC(=O)NC1=O (stereo not drawn) [Aminoglutethimide] | Ki | µM | 39

With those in mind, consider the next compound.
# Ki lookup, item CCC1(C)CC(=O)NC1=O (stereo not drawn) [Ethosuximide, 3-Ethyl-3-methylsuccinimide]
136
